molecular target: influenza A virus (IAV) PA-Nter fragment (amino acids 1-209) (Influenza A virus, UniProt P31343)
measured parameter: IC50 (nM)
// return numeric value only (unit: nM, not printed)

Measured IC50, CC(C)N1CCn2c(CC(C)(C)c3ccccc3)nc(=O)c(O)c2C1=O : 250

###

target: influenza A virus (IAV) PA-Nter fragment (amino acids 1-209) (Influenza A virus, UniProt P31343)
Here the recorded IC50 is given for each entry.
// return numeric value only (unit: nM, not printed)

A selection of reference data follows.
O=C1c2c(O)c(=O)nc(CC3(c4ccccc4)CCCC3)n2CCN1C1COC1 134
O=C1c2c(O)c(=O)nc(CC3(c4ccc(Cl)cc4)CCCC3)n2CCN1c1ccccc1 1180
CC(C)N1CCn2c(Cc3cc(O)ccc3-c3ccccc3)nc(=O)c(O)c2C1=O 146
CC(C)N1CCn2c(Cc3cccc4ccccc34)nc(=O)c(O)c2C1=O 1810

Pending molecule:
Measured IC50, CC(C)N1CCn2c(Cc3ccccc3-c3ccc(F)c(F)c3)nc(=O)c(O)c2C1=O : 1060

###

# collection of pIC50 values tested on influenza A virus (IAV) PA-Nter fragment (amino acids 1-209) (Influenza A virus)
To interpret pIC50, take it as minus log10 of a concentration measured in moles per litre.

A selection of reference data follows.
O=C1NCCn2c(CC3(c4ccc(Cl)cc4)CCCC3)nc(=O)c(O)c21 5.90
CC(C)N1CCn2c(Cc3ccccc3-c3ccc(OC(F)(F)F)cc3)nc(=O)c(O)c2C1=O 6.26
O=C1c2c(O)c(=O)nc(CC3(c4ccccc4)CCCC3)n2CCN1C1CCCC1 6.28
CC(C)N1CCn2c(Cc3ccccc3-c3ccccc3)nc(=O)c(O)c2C1=O 6.71
CC(C)c1ccc(-c2ccccc2Cc2nc(=O)c(O)c3n2CCN(C(C)C)C3=O)cc1 6.15

Test item O=C1c2c(O)c(=O)nc(CC3(c4ccccc4)CCCC3)n2CCN1Cc1ccc(F)cc1 ; influenza A virus (IAV) PA-Nter fragment (amino acids 1-209) (Influenza A virus); reported pIC50 was 6.37

Test item CC(C)N1CCn2c(CC3(c4cc(Cl)ccc4Cl)CCCC3)nc(=O)c(O)c2C1=O ; influenza A virus (IAV) PA-Nter fragment (amino acids 1-209) (Influenza A virus); reported pIC50 was 6.53

Test item CC(C)N1CCn2c(Cc3ccc(Cl)cc3-c3ccncc3)nc(=O)c(O)c2C1=O ; influenza A virus (IAV) PA-Nter fragment (amino acids 1-209) (Influenza A virus); reported pIC50 was 6.96

Test item CC(C)N1CCn2c(Cc3ccc(Cl)cc3-c3ccc(Cl)cc3)nc(=O)c(O)c2C1=O ; influenza A virus (IAV) PA-Nter fragment (amino acids 1-209) (Influenza A virus); reported pIC50 was 6.58

###

Here the recorded pIC50 is given for each entry.
target: influenza A virus (IAV) PA-Nter fragment (amino acids 1-209) (Influenza A virus)
To interpret pIC50, take it as minus log10 of a concentration measured in moles per litre.

compound	pIC50
CC(C)N1CCn2c(CC3(c4ccc(Cl)c(Cl)c4)CCCC3)nc(=O)c(O)c2C1=O	6.21
CC(C)N1CCn2c(CC3(c4ccccc4)CCCCC3)nc(=O)c(O)c2C1=O	6.92
CC(C)N1CCn2c(Cc3cccc(Cl)c3Cl)nc(=O)c(O)c2C1=O	6.46
O=C1c2c(O)c(=O)nc(CC3(n4ccc5cccnc54)CCCC3)n2CCN1CC1CC1	6.85
CC(C)N1CCn2c(CC3(c4ccc(C#N)cc4)CCCC3)nc(=O)c(O)c2C1=O	7.39
CN1CCn2c(CC3(c4ccc(Cl)cc4)CCCC3)nc(=O)c(O)c2C1=O	6.80
O=C1c2c(O)c(=O)nc(CC3(c4ccc(Cl)cc4)CCCC3)n2CCN1C1CC1	6.14
CC(C)N1CCn2c(Cc3ccccc3-c3ccc(Cl)c(Cl)c3)nc(=O)c(O)c2C1=O	5.60
CC(C)N1CCn2c(Cc3ccccc3-c3ccc(Cl)cc3)nc(=O)c(O)c2C1=O	5.86
CC(C)N1CCn2c(CC3(c4cccc(C(F)(F)F)c4)CCCC3)nc(=O)c(O)c2C1=O	6.34

Measured pIC50, CC(C)N1CCn2c(CC3(c4ccccn4)CCCC3)nc(=O)c(O)c2C1=O : 7.01

Measured pIC50, CC(C)N1CCn2c(Cc3ccccc3-c3cccc(F)c3F)nc(=O)c(O)c2C1=O : 6.70

Measured pIC50, CC(C)(C)CN1CCn2c(CC3(c4ccccc4)CCCC3)nc(=O)c(O)c2C1=O : 6.84

Measured pIC50, CC(C)N1CCn2c(Cc3ccccc3C3CCCCC3)nc(=O)c(O)c2C1=O : 6.94

Measured pIC50, CC(C)N1CCn2c(Cc3ccccc3-c3ccccc3Cl)nc(=O)c(O)c2C1=O : 6.18

Measured pIC50, CC(C)N1CCn2c(CC3(c4ccccc4)CCC(F)(F)CC3)nc(=O)c(O)c2C1=O : 7.08

Measured pIC50, CC(C)N1CCn2c(Cc3ccccc3-c3ccc4c(c3)OCO4)nc(=O)c(O)c2C1=O : 6.64

Measured pIC50, CC(C)N1CCn2c(CC3(c4cccc(Cl)c4)CCCC3)nc(=O)c(O)c2C1=O : 6.49

Measured pIC50, CC(C)N1CCn2c(CC3(c4ccc5ccccc5c4)CCCC3)nc(=O)c(O)c2C1=O : 6.96

Measured pIC50, CC(C)N1CCn2c([C@H]3CCC[C@H]3c3ccccc3)nc(=O)c(O)c2C1=O : 6.64

Measured pIC50, CN1CCn2c(CC3(c4ccccc4)CCCC3)nc(=O)c(O)c2C1=O : 6.94

Measured pIC50, CC(C)N1CCn2c(Cc3ccccc3-c3cccc(Cl)c3Cl)nc(=O)c(O)c2C1=O : 6.43
